Assay: Proteolytic stability assay, trypsin
Assay type: in vitro ADME
Conditions: trypsin (isolated protease), pH 8; 50 mM Tris-HCl pH8, 25° C., LC-MS; read-out: t1/2 (min) Trypsin
endpoint-label: half-life (min)

INSERT INTO measurements (substance, quantitative_result) VALUES
  ('Ac-EKINQSLAFIRKSDELLHNV-NH2 (N-terminus and C-terminus assumed) [Peptide 4, reference compound]', 5);

---

Target: chymotrypsin (Bos taurus)
Construct: purchased Thermo Fisher Scientific
Assay: Proteolytic stability assay, chymotrypsin
Format: in vitro ADME
Conditions: chymotrypsin (isolated protease); 100 mM Tris-HCl pH 8.0, 10 mM CaCl2, 25° C., LC-MS; read-out: t1/2 (min) Chymotrypsin
endpoint-label: half-life at 2.9 µM (min)

INSERT INTO results (substance, endpoint_label, quantitative_result) VALUES
  ('Ac-EKINQSLAFIRKSDELLHNV-NH2 (N-terminus and C-terminus assumed) [Peptide 4, reference compound]', 'half-life at 2.9 µM', 4.5);
